# test-target: HEK cells stably transfected with tetracycline inducible hNR1 and hNR2A (Homo sapiens, UniProt Q05586+Q12879)
# Construct: expressed in transfected cells; host or cells: HEK cells, stably transfected, tetracycline/doxycycline inducible
# Sequence (Q12879 23-1464, other chains not shown): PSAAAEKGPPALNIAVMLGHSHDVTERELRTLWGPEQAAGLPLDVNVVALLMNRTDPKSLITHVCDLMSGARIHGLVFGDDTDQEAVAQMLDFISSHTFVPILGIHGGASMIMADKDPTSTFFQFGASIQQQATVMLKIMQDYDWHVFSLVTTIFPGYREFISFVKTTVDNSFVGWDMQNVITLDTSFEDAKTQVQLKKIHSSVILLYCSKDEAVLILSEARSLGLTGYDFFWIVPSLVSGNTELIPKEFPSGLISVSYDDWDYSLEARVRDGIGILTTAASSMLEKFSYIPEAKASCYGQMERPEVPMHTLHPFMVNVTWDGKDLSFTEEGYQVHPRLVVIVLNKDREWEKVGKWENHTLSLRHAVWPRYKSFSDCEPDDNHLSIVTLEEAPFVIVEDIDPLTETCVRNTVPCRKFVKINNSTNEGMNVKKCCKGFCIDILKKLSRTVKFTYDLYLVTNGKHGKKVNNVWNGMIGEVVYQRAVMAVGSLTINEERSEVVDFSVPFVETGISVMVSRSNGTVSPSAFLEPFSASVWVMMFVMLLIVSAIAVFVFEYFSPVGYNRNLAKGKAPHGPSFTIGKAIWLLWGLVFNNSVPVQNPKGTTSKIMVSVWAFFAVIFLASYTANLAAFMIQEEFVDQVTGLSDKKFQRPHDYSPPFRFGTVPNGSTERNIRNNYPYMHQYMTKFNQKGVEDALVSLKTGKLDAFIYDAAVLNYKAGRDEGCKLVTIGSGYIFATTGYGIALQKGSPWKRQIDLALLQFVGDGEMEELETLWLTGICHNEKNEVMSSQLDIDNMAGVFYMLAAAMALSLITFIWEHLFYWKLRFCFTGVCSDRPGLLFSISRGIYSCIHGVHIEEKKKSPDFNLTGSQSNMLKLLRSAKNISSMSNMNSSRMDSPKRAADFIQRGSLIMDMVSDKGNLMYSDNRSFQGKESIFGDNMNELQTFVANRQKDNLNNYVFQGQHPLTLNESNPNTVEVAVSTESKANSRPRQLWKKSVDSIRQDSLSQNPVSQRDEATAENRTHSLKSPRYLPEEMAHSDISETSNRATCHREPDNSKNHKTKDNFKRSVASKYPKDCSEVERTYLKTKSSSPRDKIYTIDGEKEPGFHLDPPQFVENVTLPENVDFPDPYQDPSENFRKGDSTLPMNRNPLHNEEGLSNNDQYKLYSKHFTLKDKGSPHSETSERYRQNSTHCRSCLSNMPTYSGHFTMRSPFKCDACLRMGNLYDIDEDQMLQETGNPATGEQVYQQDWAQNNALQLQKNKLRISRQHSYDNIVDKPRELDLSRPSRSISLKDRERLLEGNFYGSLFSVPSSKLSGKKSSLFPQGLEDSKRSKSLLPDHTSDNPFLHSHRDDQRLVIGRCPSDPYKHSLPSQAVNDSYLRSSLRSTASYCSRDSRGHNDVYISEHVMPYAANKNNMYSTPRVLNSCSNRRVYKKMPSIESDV
# protocol-description: Assay 1: Cell-Based Assay, cytosolic calcium response to positive allosteric modulators (with 30 μM glycine and 300 nM L-glutamate, EC30)
# stated-conditions: Table 2; cytosolic calcium response, with 30 μM glycine and 300 nM L-glutamate (EC30); — = no plateau was reached
endpoint-name: EC50 (µM)

Some compounds with known EC50 results, for comparison:
| compound | reported-measurement |
| --- | --- |
| Cc1sc2nc(Cc3cc(C#N)ccc3F)cc(=O)n2c1[C@@H]1C[C@H]1CO (relative stereo) | 10.8 |
| CNC(=O)c1c(C)sc2nc(Cn3nc(C4CC4)cc3C(F)(F)F)cc(=O)n12 | 11.7 |
| Cc1sc2nc(Cc3cccc(C(F)(F)F)c3F)cc(=O)n2c1C(C)O (single isomer, unassigned; enantiomer 1) [Example 27.11] | 25.3 |
| Cc1sc2nc(Cn3nc(C(F)(F)F)cc3C3CC3)cc(=O)n2c1C#N | 2 |
| CCN(Cc1cc(=O)n2c(C(C)(C)C)c(C)sc2n1)c1ccc(F)cc1 | 5.3 |

P: CCN(Cc1cc(=O)n2c(Cl)csc2n1)c1ccc(F)cc1
Q: CCN(Cc1cc(=O)n2c3c(sc2n1)CCC3CC(N)=O)c1ccc(F)cc1 (centres unmarked)
R: CCN(Cc1cc(=O)n2c(CN(C)C)c(C)sc2n1)c1ccc(F)cc1
-- ask List from greatest to least EC50. Respond with the label ranking, as requested.
-- reply R, Q, P

----------
# test-target: HEK cells stably transfected with tetracycline inducible hNR1 and hNR2A (Homo sapiens, UniProt Q05586+Q12879)
# Construct: expressed in transfected cells; host or cells: HEK cells, stably transfected, tetracycline/doxycycline inducible
# protocol-description: Assay 1: Cell-Based Assay, cytosolic calcium response to positive allosteric modulators (with 30 μM glycine and 300 nM L-glutamate, EC30)
# stated-conditions: Table 2; responses scaled relative to 100 μM L-glutamate maximal response (100%) and 0 μM L-glutamate (0%)
endpoint-name: Max % (%)

Some compounds with known Max % results, for comparison:
| compound | Max %, % |
| --- | --- |
| CCN(Cc1cc(=O)n2c(-c3cncnc3)c(C)sc2n1)c1ccccn1 [Example 5.12] | 106 |
| Cc1sc2nc(COc3ccc(F)cc3)cc(=O)n2c1C1CC1CO (single isomer, unassigned) [Example 4.1] | 141 |
| CCC(O)c1c(C)sc2nc(COc3ccc(F)cc3)cc(=O)n12 (centres unmarked) [Example 2.2] | 96.5 |
| CNC(=O)c1c(C)sc2nc(Cn3nc(C(F)(F)F)cc3C3CC3)cc(=O)n12 [Example 16.1] | 140 |
| CCNC(=O)c1c(C)sc2nc(Cc3cccc(C#N)n3)cc(=O)n12 [Example 21.22] | 60.1 |
| CNC(=O)c1c(C)sc2nc(Cc3cccc(C#N)c3F)cc(=O)n12 [Example 21.2] | 133 |

a: CCNC(=O)c1c(C)sc2nc(Cc3cc(F)ccc3C)cc(=O)n12 [Example 21.36]
b: CCN(Cc1cc(=O)n2c(C(C)(C)O)c(C)sc2n1)c1ccc(F)cc1 [Example 10.5]
-- ask Would you let me know which has the greater Max % value, a or b ? To answer, give the label that identifies your chosen option.
-- reply b
(b: 158%, a: 71.8%)
